B1: Zinc finger homeobox protein 3, residues 2244 to 2299; numbered along this chain, Q15911 (parent)
chain: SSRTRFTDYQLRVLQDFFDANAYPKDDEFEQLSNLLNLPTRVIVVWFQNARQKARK

Variants of: B1
Experiment: abundance fitness (aPCA) (normalised: wild type 0, dead -1); higher = more abundant; growth selection in yeast, the domain comes from the species named
Conditions: Homo sapiens
property measured: abundance fitness
Give bare numbers.

Below are worked cases with known answers.
{"columns": ["seq", "abundance fitness"],
 "data": [
  ["SSRTRFTDYQMRVLQDFFDANAYPKDDEFEQLSNLLNLPTRVIVVWFQNARQKARK [L11M]", 0.204],
  ["SSRTRFTDYQLRVLQDFFSANAYPKDDEFEQLSNLLNLPTRVIVVWFQNARQKARK [D19S]", -0.299],
  ["SSRTRFTDYQLRVLQDFFDANAYPKDDEFEQLSNSLNLPTRVIVVWFQNARQKARK [L35S]", 0.007],
  ["SSRTRFTDYQLRVLQDFFDANAYPKDDEFEQLTNLLNLPTRVIVVWFQNARQKARK [S33T]", -0.316],
  ["SSRTRFTDYQLLVLQDFFDANAYPKDDEFEQLSNLLNLPTRVIVVWFQNARQKARK [R12L]", -0.221]
]}

Respectfully, I request abundance fitness for each entry included below.
1. SSRTRFTDYQLRVLQDFFDANAYPKDDEFEQLSNLLNLPFRVIVVWFQNARQKARK [T40F]
2. SSRMRFTDYQLRVLQDFFDANAYPKDDEFEQLSNLLNLPTRVIVVWFQNARQKARK [T4M]
3. SSHTRFTDYQLRVLQDFFDANAYPKDDEFEQLSNLLNLPTRVIVVWFQNARQKARK [R3H]
4. SSRTRFTDYQLRVLQDFFDANAYPKDDEFEPLSNLLNLPTRVIVVWFQNARQKARK [Q31P]
5. SSRTRFTDYQLRVLQDSFDANAYPKDDEFEQLSNLLNLPTRVIVVWFQNARQKARK [F17S]
6. SSRTRFTDYQLRVLQDFFDANAYPKDDEFEGLSNLLNLPTRVIVVWFQNARQKARK [Q31G]

[-0.107, 0.304, 0.368, -0.764, -0.025, -0.055]

Hey, just so you know, these numbers are from the Human Domainome abundance scans (Beltran et al. 2025).
